experimentDescription: Pharmacokinetic experiment in mice
assaySetup: male, ICR, mouse, plasma, po, 10 mg/kg
I'd appreciate it if you could label each record using AUC(0-t) and these ranges: Low = under 500 ng·h/mL, Mid = from 500 ng·h/mL up to 2000 ng·h/mL, High = 2000 ng·h/mL and over

Please review the following examples before continuing.
[2H]C([2H])([2H])OC[C@@]12CC[C@@H](CN(c3nc(OC[C@@]45CCCN4C[C@H](F)C5)nc4c(F)c(-c5cc(O)cc6ccc(F)c(C#C)c56)nc(OC)c34)C1)N2 : High
C#Cc1c(F)ccc2cc(O)cc(-c3ncc4c(N5C[C@H]6CC[C@@](CCF)(C5)N6)nc(OC[C@@]56CCCN5C[C@H](F)C6)nc4c3F)c12 : Low

Query string: Exam item: assign [2H]C([2H])([2H])OC[C@]12CC[C@H](CN(c3nc(OC[C@@]45CCCN4C[C@H](F)C5)nc4c(F)c(-c5cc(O)cc6ccc(F)c(C#C)c56)nc(OCC)c34)C1)N2 to the correct category.
Result string: Mid

Query string: Exam item: assign C#Cc1c(F)ccc2cc(O)cc(-c3ncc4c(N5C[C@H]6CC[C@@](C=C)(C5)N6)nc(OC[C@@]56CCCN5C[C@H](F)C6)nc4c3F)c12 to the correct category.
Result string: Mid

Query string: Exam item: assign C#Cc1c(F)ccc2cc(O)cc(-c3ncc4c(N5CC6CCC(C5)N6)nc(OC[C@@]56CCCN5C[C@H](F)C6)nc4c3F)c12 [Positive Compounds, reference compound] to the correct category.
Result string: Low

Query string: Exam item: assign [2H]C([2H])([2H])C12CCC(CN(c3nc(OC[C@@]45CCCN4C[C@H](F)C5)nc4c(F)c(-c5cc(O)cc6ccc(F)c(C#C)c56)nc(OC)c34)C1)N2 (stereo partly drawn) to the correct category.
Result string: Low

Query string: Exam item: assign C#Cc1c(F)ccc2cc(O)cc(-c3ncc4c(N5CC6CCC(COCC)(C5)N6)nc(OC[C@@]56CCCN5C[C@H](F)C6)nc4c3F)c12 (stereo partly drawn) to the correct category.
Result string: High

Query string: Exam item: assign C#Cc1c(F)ccc2cc(O)cc(-c3ncc4c(N5C[C@@H]6CC[C@](CC)(C5)N6)nc(OC[C@@]56CCCN5C[C@H](F)C6)nc4c3F)c12 to the correct category.
Result string: Mid

Query string: Exam item: assign [2H]C([2H])([2H])OCC12CCC(CN(c3nc(OC[C@@]45CCCN4C[C@H](F)C5)nc4c(F)c(-c5cc(O)cc6ccc(F)c(C#C)c56)ncc34)C1)N2 (stereo partly drawn) to the correct category.
Result string: Mid

Query string: Exam item: assign [2H]C([2H])([2H])[C@@]12CC[C@@H](CN(c3nc(OC[C@@]45CCCN4C[C@H](F)C5)nc4c(F)c(-c5cc(O)cc6ccc(F)c(C#C)c56)ncc34)C1)N2 to the correct category.
Result string: Mid

Query string: Exam item: assign C#Cc1c(F)ccc2cc(O)cc(-c3ncc4c(N5CC6CCC(C(C)OC)(C5)N6)nc(OC[C@@]56CCCN5C[C@H](F)C6)nc4c3F)c12 (stereo partly drawn) to the correct category.
Result string: Mid
